- System: SK-MEL-5 melanoma
- protocol description: NCI-60 one-dose screen, 48 h (100 = growth as untreated, 0 = no growth, -100 = all killed)
- study conditions: 10 µM unless noted
The panel holds about 83,000 compounds, 20% with a hit somewhere; the sample as a whole holds those more often.
reported property: growth (%)

- compound: "CCCCC(CC)OC(=O)C(Br)CC (stereo unspecified)"
  system tested: "SK-MEL-5 melanoma"
  value measured: 102
- compound: "CC1CCC(C)N(C)C1 (stereo unspecified)"
  system tested: "SK-MEL-5 melanoma"
  value measured: 107
- compound: "CCCCOc1ccc(/C=C2/SC(N3CCOCC3)=NC2=O)cc1OCC"
  system tested: "SK-MEL-5 melanoma"
  value measured: 98.7
- compound: "CN(C)c1nc2c(N)ncnc2n1C1OC(CO)C(O)C1O (stereo unspecified)"
  system tested: "SK-MEL-5 melanoma"
  value measured: 108
- compound: "COc1ccc(C(=O)N2NC(=O)/C(=C/c3cn(-c4ccccc4)nc3-c3ccccc3)N=C2c2ccccc2)cc1"
  system tested: "SK-MEL-5 melanoma"
  value measured: 105
- compound: "O=C1NC(=C(Cl)Cl)/C(=N/S(=O)(=O)N2CCC(C3(C(F)(F)F)N=N3)CC2)N1"
  system tested: "SK-MEL-5 melanoma"
  value measured: 92
- compound: "COc1ccc(NC(=O)CSc2nc(-c3ccc(OC)c(OC)c3)cc(-c3cc(OC)c(OC)c(OC)c3)n2)cc1"
  system tested: "SK-MEL-5 melanoma"
  value measured: 88.7
- compound: "COC(=O)c1cccc2c1N(C)c1c(cccc1C(=O)OC)CC2"
  system tested: "SK-MEL-5 melanoma"
  value measured: 106
- compound: "Cc1nn(-c2ccc(Cl)cc2)c2ncnc(N/N=C/c3cccc([N+](=O)[O-])c3)c12"
  system tested: "SK-MEL-5 melanoma"
  value measured: 105
- compound: "COc1ccc(CCNC2=CC(=O)CCC2)cc1OC"
  system tested: "SK-MEL-5 melanoma"
  value measured: 101
- compound: "CCCCCCN1CSC(=S)N(CCCCCC)C1"
  system tested: "SK-MEL-5 melanoma"
  value measured: 94.5
